- STUDY_TARGET: B-Raf (V600E)-kinase (Homo sapiens, UniProt P15056, V600E)
- Sequence (P15056 whole entry V600E): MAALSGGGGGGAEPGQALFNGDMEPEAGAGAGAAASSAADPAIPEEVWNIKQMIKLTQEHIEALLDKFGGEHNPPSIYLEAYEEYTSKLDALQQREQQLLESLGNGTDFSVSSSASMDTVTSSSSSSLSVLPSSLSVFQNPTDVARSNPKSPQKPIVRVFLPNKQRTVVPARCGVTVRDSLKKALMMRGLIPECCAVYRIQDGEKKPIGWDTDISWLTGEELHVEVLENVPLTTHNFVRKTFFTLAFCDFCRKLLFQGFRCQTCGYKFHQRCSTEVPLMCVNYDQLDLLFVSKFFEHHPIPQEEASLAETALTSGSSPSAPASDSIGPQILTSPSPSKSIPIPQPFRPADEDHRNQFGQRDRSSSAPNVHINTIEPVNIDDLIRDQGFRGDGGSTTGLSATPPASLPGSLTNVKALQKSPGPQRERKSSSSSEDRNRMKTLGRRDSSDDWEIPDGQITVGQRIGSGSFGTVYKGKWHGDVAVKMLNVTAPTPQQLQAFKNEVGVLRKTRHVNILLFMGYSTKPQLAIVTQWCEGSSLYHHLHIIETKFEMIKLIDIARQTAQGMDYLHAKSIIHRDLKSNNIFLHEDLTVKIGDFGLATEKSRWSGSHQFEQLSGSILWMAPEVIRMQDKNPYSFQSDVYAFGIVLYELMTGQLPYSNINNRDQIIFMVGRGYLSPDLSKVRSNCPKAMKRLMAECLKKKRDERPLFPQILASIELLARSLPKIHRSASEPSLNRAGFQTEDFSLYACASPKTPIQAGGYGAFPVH
- ASSAY_SUMMARY: Kinase test B-Raf (V600E)
- Format: biochemical
- MEASUREMENT_SETUP: compound concentration 2 μM; 100% = no inhibition, 0% = total inhibition; read-out: % CTL (residual activity of the enzyme relative to DMSO control)
VALUE_TYPE: remaining activity at 2 µM (%)

>>> observed("Cc1ncc(C(=O)Nc2cc(N3CC[C@H](N(C)C)C3)c(C)c(C(F)(F)F)c2)cc1-n1cc(-c2cnn(C)c2C)nn1")
4.6

a = CCN1CCN(c2cncc(-c3cn(-c4cc(NC(=O)c5cc(C(F)(F)F)ccn5)cnc4C)nn3)c2)CC1
b = Cc1ncc(C(=O)Nc2cc(C(C)(C)C)on2)cc1-n1cc(-c2cncc(N3CCN(CC(C)C)CC3)c2)nn1
// compare measured remaining activity at 2 µM, left a , right b , return larger The response must carry the label of the picked entry. b
(b: 7.7%, a: 2.1%)

====

- STUDY_TARGET: B-Raf (V600E)-kinase (Homo sapiens, UniProt P15056, V600E)
- ASSAY_SUMMARY: Kinase test B-Raf (V600E)
- Format: biochemical
- MEASUREMENT_SETUP: compound concentration 2 μM; 100% = no inhibition, 0% = total inhibition; read-out: % CTL (residual activity of the enzyme relative to DMSO control)
VALUE_TYPE: remaining activity at 2 µM (%)

Please review the following examples before continuing.
>>> observed("Cc1ncc(C(=O)Nc2cn(C(C)C)nn2)cc1-n1cc(-c2cncc(N3CCN(C(C)C)CC3)c2)nn1")
2.1
>>> observed("CCN1CCN(c2cc(NC(=O)c3cnc(C)c(-n4cc(-c5cncnc5)nn4)c3)cc(C(F)(F)F)c2C)CC1")
1.9
>>> observed("COc1ccc(C(=O)Nc2cnc(C)c(-n3cc(-c4cncc(N5CCN(C(C)C)CC5)c4)nn3)c2)cc1C(F)(F)F")
2.1

P = Cc1cn2c(-c3cn(-c4cc(C(=O)Nc5cc(N6CCN(C)CC6)cc(C(F)(F)F)c5)cnc4C)nn3)cnc2cn1
Q = Cc1ncc(C(=O)Nc2cc(N3CCOCC3)c(C)c(C(F)(F)F)c2)cc1-n1cc(-c2cnn(C)c2C)nn1
R = Cc1ncc(C(=O)Nc2cc(C(C)(C)C)on2)cc1-n1cc(-c2cncc(N3CCCN(C)CC3)c2)nn1
S = Cc1ncc(C(=O)Nc2cc(N3CCN(C(C)C)CC3)cc(C(F)(F)F)c2)cc1-n1cc(-c2cnn(C)c2C)nn1
Which order do these items take when sorted by rising remaining activity at 2 µM? List them. Reply with the item labels sorted in the order that was asked for. R, P, S, Q

====

- STUDY_TARGET: B-Raf (V600E)-kinase (Homo sapiens, UniProt P15056, V600E)
- ASSAY_SUMMARY: Kinase test B-Raf (V600E)
- Type: biochemical
- MEASUREMENT_SETUP: compound concentration 2 μM; 100% = no inhibition, 0% = total inhibition; read-out: % CTL (residual activity of the enzyme relative to DMSO control)
VALUE_TYPE: remaining activity at 2 µM (%)

Please review the following examples before continuing.
>>> observed("CCC(CC)N1CCN(c2cncc(-c3cn(-c4cc(C(=O)Nc5cc(C(C)(C)C)on5)cnc4C)nn3)c2)CC1 [Example I-204]")
1
>>> observed("CCCN1CCN(c2cncc(-c3cn(-c4cc(C(=O)Nc5cc(C(C)(C)C)on5)cnc4C)nn3)c2)CC1 [Example I-164]")
9.9
>>> observed("Cc1ncc(C(=O)Nc2cc(Br)cc(C(F)(F)F)c2)cc1-n1cc(-c2cnn(C)c2C)nn1 [Example I-62]")
2.8
>>> observed("Cc1ncc(C(=O)Nc2cc(C(C)(C)C)on2)cc1-n1cc(-c2cccnc2)nn1 [Example I-80]")
1.9
>>> observed("Cc1ncc(NC(=O)c2cc(OC(F)(F)F)cc(N(C)C3CCN(C)C3)c2)cc1-n1cc(-c2cnn(C)c2C)nn1 (stereo not shown) [XII-28]")
2

I = Cc1ncc(C(=O)Nc2cc(C(C)(C)C)nn2C)cc1-n1cc(-c2cnn(C)c2C)nn1 [Example I-4]
II = Cc1ncc(C(=O)Nc2cc(C(C)(C)C)on2)cc1-n1cc(-c2cncc(N3CCC(N4CCOCC4)CC3)c2)nn1 [Example I-136]
// compare measured remaining activity at 2 µM, left I , right II , return larger The response must carry the label of the picked entry. II
(II: 2.5%, I: 1.7%)
